# System: NCI-H226 lung
# assay overview: NCI tumour cell line growth inhibition, 48 h; in the data active = GI50 below about 0.43 µM; inactive = the rest
Classes used: active, inactive

{"columns": ["compound", "discrete label"],
 "data": [
  ["CCOC(=O)c1nc2sc(Cl)cn2c1/C=N/N=C(N)N", "inactive"],
  ["COc1ccc(/C(=N/O)c2cc(F)c(F)c(OC)c2F)cc1O", "inactive"],
  ["C[C@H]1CCC/C=C/[C@@H]2C[C@H](O)C[C@H]2[C@H](O)C(O)C(O)C(=O)O1 (stereo partly specified)", "active"],
  ["C=CCn1c(C)nc2cc(Nc3nc(N4CCCC4)nc4nc[nH]c34)ccc21", "inactive"],
  ["CCOC(=O)CCC(NC(=O)c1ccc(Oc2nc3cc(N)cc(N)c3nc2-c2ccccc2)cc1)C(=O)OCC (stereo unspecified)", "inactive"],
  ["COc1cccc(/C=C2\\COc3ccc(O)c(O)c3C2=O)c1OC", "inactive"],
  ["COc1cc(/C=C/C(=O)c2cccc(-n3cc(-c4ccccc4)[nH]c3=O)c2)ccc1O", "inactive"],
  ["COC(=O)c1cc2c3cc(Cl)ccc3[nH]c2c2ncccc12", "inactive"],
  ["Nc1ccccc1SC(CC(=O)c1ccccc1)c1c(Cl)cccc1Cl (stereo unspecified)", "inactive"],
  ["NC(=O)c1c(NC(=O)c2ccc(C(F)(F)F)cc2Cl)sc2c1CCC(=O)C2", "inactive"],
  ["O=C(Nc1cccc2[nH]c(C(F)(F)F)nc12)c1ccc(Br)cc1F", "inactive"]
]}

====

# System: DLD-1 colon
# assay overview: NCI tumour cell line growth inhibition, 48 h

{"columns": ["compound", "system name", "TGI"],
 "data": [
  ["COC(=O)N1C=CC2=C(C)C3Nc4ccccc4C3C(C)=C2C1 (stereo not drawn)", "DLD-1 colon", "19.8 µM"],
  ["C=C1C(=O)OC2/C=C(CO)/C=C\\C3OC3(C)CC(OC(=O)/C(C)=C/COC(C)=O)C12 (stereo not drawn)", "DLD-1 colon", "2.49 µM"],
  ["COc1c(O)ccc(/C=N/NC(=S)NCOCCOC(C)=O)c1OC", "DLD-1 colon", "> 100 µM"],
  ["COc1ccc2[nH]c(=O)cc(C)c2c1[N+](=O)[O-]", "DLD-1 colon", "> 100 µM"],
  ["COc1ccc(-c2cc(-c3ccco3)c(C#N)c(=O)n2C2OC(COC(C)=O)C(OC(C)=O)C(OC(C)=O)C2OC(C)=O)cc1 (stereo not drawn)", "DLD-1 colon", "> 100 µM"],
  ["CC1=CC(=O)c2ccc3c4ccccc4n(C)c3c2C1=O", "DLD-1 colon", "> 100 µM"],
  ["O=C(OCc1ccccc1)N1N=NC2C3CC(OCc4ccccc4)(OCc4ccccc4)C(O3)C21 (stereo not drawn)", "DLD-1 colon", "> 100 µM"],
  ["Oc1ccc(Br)cc1C=Nc1ccc(Oc2ccc(N=Cc3cc(Br)ccc3O)cc2)cc1", "DLD-1 colon", "> 19.6 µM"],
  ["COC(=O)C(C(=O)C(=O)Nc1nc2ccc(OC)cc2s1)c1cnc2ccccc2n1 (stereo not drawn)", "DLD-1 colon", "> 100 µM"],
  ["CC1=C(C(=O)Nc2cc(F)c(F)cc2F)C(c2ccc(N(C)C)cc2)C(C(=O)Nc2cc(F)c(F)cc2F)=C(C)N1", "DLD-1 colon", "> 100 µM"],
  ["CCN(CC)CCNc1ccc2nc(C)n3c4ccc(OC)cc4c(=O)c1c23", "DLD-1 colon", "10.9 µM"],
  ["COc1ccc(C)cc1-c1ccc(-c2cc(C)ccc2OC)o1", "DLD-1 colon", "> 100 µM"],
  ["CCOC(=O)N1C/C(=C\\c2ccc(N(C)C)cc2)C(=O)/C(=C/c2ccc(N(C)C)cc2)C1", "DLD-1 colon", "> 100 µM"],
  ["O=C1Sc2sc(=S)sc2SC1c1ccccc1 (stereo not drawn)", "DLD-1 colon", "> 90.9 µM"],
  ["CC(=O)NC1=C(NCCO)C(=O)c2ccccc2C1=O", "DLD-1 colon", "> 50 µM"],
  ["O=C1C2C3C=CC(C2C(=O)N1CN1CCOCC1)C1C2C(=O)N(CN4CCOCC4)C(=O)C2C31 (stereo not drawn)", "DLD-1 colon", "> 100 µM"],
  ["Cc1c2cnccc2c(C)c2c1c1ccccc1n2CCCCCCCl", "DLD-1 colon", "> 50 µM"],
  ["COc1cc(Br)c(/C=N/N=C(\\N)NO)cc1OC", "DLD-1 colon", "> 100 µM"]
]}

The measurements presented in this section are drawn from PubChem BioAssay (NCI).
